Assay system UniProt P30518; read-out recorded as Ki.
Sequence (P30518 whole entry): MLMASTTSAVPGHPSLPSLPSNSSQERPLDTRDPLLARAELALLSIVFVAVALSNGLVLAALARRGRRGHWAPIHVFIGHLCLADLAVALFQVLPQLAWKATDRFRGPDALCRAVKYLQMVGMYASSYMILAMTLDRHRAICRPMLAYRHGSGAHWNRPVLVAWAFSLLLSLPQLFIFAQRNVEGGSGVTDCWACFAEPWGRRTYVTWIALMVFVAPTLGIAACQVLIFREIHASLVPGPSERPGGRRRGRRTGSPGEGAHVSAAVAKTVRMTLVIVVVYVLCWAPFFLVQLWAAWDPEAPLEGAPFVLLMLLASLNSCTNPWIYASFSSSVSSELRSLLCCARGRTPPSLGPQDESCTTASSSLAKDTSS

Worked cases, Ki given:
CCCOc1ccc(C(=O)N2CCC(F)(F)/C(=C\C(=O)NCCO)c3cc(F)ccc32)c(C(F)(F)F)c1 ... 0.0058 µM
NC(=O)CNC(=O)/C=C1/c2ccccc2N(C(=O)c2ccc(OCC3CC3)cc2C(F)(F)F)CCC1(F)F ... 0.011 µM
C[C@H](F)COc1ccc(C(=O)N2CCC(F)(F)/C(=C\C(=O)NCCO)c3cc(F)ccc32)c(C(F)(F)F)c1 ... 0.017 µM
CCCOc1ccc(C(=O)N2CCC(F)(F)/C(=C\C(=O)Nc3cccc(O)c3)c3ccccc32)c(C(F)(F)F)c1 ... 0.0062 µM
CCCCOc1ccc(C(=O)N2CCC(F)(F)/C(=C\C(=O)NCC(N)=O)c3ccccc32)c(C(F)(F)F)c1 ... 0.019 µM

Let's switch to this molecule now.
## Task Please look up its Ki: C[C@@H](F)COc1ccc(C(=O)N2CCC(F)(F)/C(=C\C(=O)NCCO)c3cc(F)ccc32)c(C(F)(F)F)c1
## Result 0.016 µM

====

Assay system CYP2C9 (Homo sapiens, UniProt P11712); read-out recorded as pIC50.
Just the number, please; pIC50 means minus log10 of the concentration in mol/L.

CCCCOc1ccc(C(=O)N2CCC(F)(F)/C(=C\C(=O)NCC(N)=O)c3ccccc32)c(C(F)(F)F)c1 ... 4.96

## Task Identify the measured pIC50 of CC(F)(F)COc1ccc(C(=O)N2CCC(F)(F)/C(=C\C(=O)NCCO)c3ccccc32)c(C(F)(F)F)c1 for CYP2C9 (Homo sapiens, UniProt P11712).
## Result 4.47
